tested on: Klebsiella pneumoniae; experiment: Antibacterial activity against Klebsiella pneumoniae 15-5 assessed as inhibition of bacterial growth measured after 18 to 20 hrs by broth microdilution method; format: functional; settings: time 18-20 hrs
reported_property: MIC (µg/mL)
Answer in µg/mL, number only, no unit symbol.

Prompt: May I ask what MIC has been recorded for Cc1nc(-c2ccc(C(C)(C)C)cc2)ncc1C(=O)N[C@@H](CCN)C(=O)N(C)[C@@H]1C(=O)N[C@@H](C)C(=O)N[C@H](C(=O)NCS(=O)(=O)O)Cc2ccc(OCCN)c(c2)-c2cc1ccc2OCCN.Cl.Cl.Cl.Cl ?
Completion: 8

Prompt: May I ask what MIC has been recorded for Cc1nc(-c2ccc(C(C)(C)C)cc2)ncc1C(=O)C(=O)N[C@@H](CCN)C(=O)N(C)[C@@H]1C(=O)N[C@@H](C)C(=O)N[C@H](C(=O)NCC#N)Cc2ccc(OCCN)c(c2)-c2cc1ccc2OCCN.O=C(O)C(F)(F)F.O=C(O)C(F)(F)F.O=C(O)C(F)(F)F.O=C(O)C(F)(F)F ?
Completion: 8

====

test system: Pseudomonas aeruginosa; test: Antibacterial activity against Pseudomonas aeruginosa 19-5 assessed as inhibition of bacterial growth measured after 18 to 20 hrs by broth microdilution method; format: functional; conditions: time 18-20 hrs
reported_property: MIC (µg/mL)
Answer in µg/mL, number only, no unit symbol.

Past entries and their recorded results:
Prompt: May I ask what MIC has been recorded for Cc1nc(-c2ccc([C@H](C)SSC(C)(C)C)cc2)ncc1C(=O)N[C@@H](CCN)C(=O)N(C)[C@@H]1C(=O)N[C@@H](C)C(=O)N[C@H](C(=O)NCC#N)Cc2ccc(OCCN)c(c2)-c2cc1ccc2OCCN.O=C(O)C(F)(F)F.O=C(O)C(F)(F)F.O=C(O)C(F)(F)F.O=C(O)C(F)(F)F ?
Completion: 1

Prompt: May I ask what MIC has been recorded for Cc1nc(-c2ccc(CSSC(C)(C)C)cc2)ncc1C(=O)N[C@@H](CCN)C(=O)N(C)[C@@H]1C(=O)N[C@@H](C)C(=O)N[C@H](C(=O)O)Cc2ccc(OCCN)c(c2)-c2cc1ccc2OCCN.O=C(O)C(F)(F)F.O=C(O)C(F)(F)F.O=C(O)C(F)(F)F.O=C(O)C(F)(F)F ?
Completion: 32

Prompt: May I ask what MIC has been recorded for Cc1cc(-c2ncc(C(=O)N[C@@H](CCN)C(=O)N(C)[C@@H]3C(=O)N[C@@H](C)C(=O)N[C@H](C(=O)NCC#N)Cc4ccc(OCCN)c(c4)-c4cc3ccc4OCCN)c(C)n2)ccc1CSSC(C)(C)C.O=C(O)C(F)(F)F.O=C(O)C(F)(F)F.O=C(O)C(F)(F)F.O=C(O)C(F)(F)F ?
Completion: 4

Prompt: May I ask what MIC has been recorded for C[C@@H](O)[C@H]1C(=O)N2C(C(=O)O)=C(S[C@@H]3CN[C@H](C(=O)N(C)C)C3)[C@H](C)[C@H]12 ?
Completion: 32

Prompt: May I ask what MIC has been recorded for Cc1nc(-c2ccc(CSSC(C)(C)C)c(F)c2)ncc1C(=O)N[C@@H](CCN)C(=O)N(C)[C@@H]1C(=O)N[C@@H](C)C(=O)N[C@H](C(=O)NCC#N)Cc2ccc(OCCN)c(c2)-c2cc1ccc2OCCN.O=C(O)C(F)(F)F.O=C(O)C(F)(F)F.O=C(O)C(F)(F)F.O=C(O)C(F)(F)F ?
Completion: 4

Prompt: May I ask what MIC has been recorded for Cc1nc(-c2ccc(SC(C)(C)C)cc2)ncc1C(=O)N[C@@H](CCN)C(=O)N(C)[C@@H]1C(=O)N[C@@H](C)C(=O)N[C@H](C(=O)NCC#N)Cc2ccc(OCCN)c(c2)-c2cc1ccc2OCCN.O=C(O)C(F)(F)F.O=C(O)C(F)(F)F.O=C(O)C(F)(F)F.O=C(O)C(F)(F)F ?
Completion: 16

Prompt: May I ask what MIC has been recorded for Cc1nc(-c2ccc(CSSCC(C)C)cc2)ncc1C(=O)N[C@@H](CCN)C(=O)N(C)[C@@H]1C(=O)N[C@@H](C)C(=O)N[C@H](C(=O)NCC#N)Cc2ccc(OCCN)c(c2)-c2cc1ccc2OCCN.O=C(O)C(F)(F)F.O=C(O)C(F)(F)F.O=C(O)C(F)(F)F.O=C(O)C(F)(F)F ?
Completion: 4

Prompt: May I ask what MIC has been recorded for Cc1nc(-c2ccc(CSSC3CCC3)cc2)ncc1C(=O)N[C@@H](CCN)C(=O)N(C)[C@@H]1C(=O)N[C@@H](C)C(=O)N[C@H](C(=O)NCC#N)Cc2ccc(OCCN)c(c2)-c2cc1ccc2OCCN.O=C(O)C(F)(F)F.O=C(O)C(F)(F)F.O=C(O)C(F)(F)F.O=C(O)C(F)(F)F ?
Completion: 4

Prompt: May I ask what MIC has been recorded for CCCCSSc1ccc(-c2ncc(C(=O)N[C@@H](CCN)C(=O)N(C)[C@@H]3C(=O)N[C@@H](C)C(=O)N[C@H](C(=O)NCC#N)Cc4ccc(OCCN)c(c4)-c4cc3ccc4OCCN)c(C)n2)cc1.O=C(O)C(F)(F)F.O=C(O)C(F)(F)F.O=C(O)C(F)(F)F.O=C(O)C(F)(F)F ?
Completion: 4

// next item, MIC requested
Prompt: May I ask what MIC has been recorded for Cc1nc(-c2ccc(C(C)(C)C)cc2)ncc1C(=O)N[C@@H](CCN)C(=O)N(C)[C@@H]1C(=O)N[C@@H](C)C(=O)N[C@H](C(=O)NCC=O)Cc2ccc(OCCN)c(c2)-c2cc1ccc2OCCN.Cl.Cl.Cl.Cl ?
Completion: 64
